experiment: soluble on expression in E. coli; label from the status in PepcDB or PDB records
PROPERTY_MEASURED: soluble on expression in E. coli

>>> reported_measurement("MATKITINVTNNSTSTQNFFFFQQPAVYSGGPKVYTNSLYSQTLLPYATSGSVLSFTMILQYYAGVQQQVDPPQIGQPSGQLGAIQPIELTPASGGTPTKNTTNMTVDPSLGLSVPVSTDGPQAGSFRIVTPVYDPVLMNYSAGSAVQSLTGAITLSNFVTAQPNTNLDCQPIIKFYVQTGTYTAGTVMNFTSSSVGAALCDATPGFTTFNVSYNPNGTWTVKNMALSQLANGSRGLLEKSSFTTELNAAAQIAEVLNEAGTAVVSTGLAANFLRPVTVTNLTAPGAIIRNRDYQVGPVDGRHLGLTCTDVAGNTAVFD")
"not soluble"
>>> reported_measurement("MPVAEQPYHHGSLRRVLLARAESTLEKDGVDGLSLRQLAREAGVSHAAPSKHFRDRQALLDALAESGFLRLTAALERAVEEAESHARARFAALAGAYVSFALAHRELLALMYGNKHAPGAASQVVEAGHASMDLTVRIVTEAQAAGDIGPGDASRIALVAFATFHGIATLAAGGMLDGAPVDEVVTAASDTFWRGLAQA")
"soluble"
>>> reported_measurement("MAHHHHHHMVNRSTRLQRGPLKKKTTAVAARTSSHAEQPCADGPAKTSSPQTNSIKNVEMTVGVHASPAVAVGDTPQGKLRLRRRAKKDRPLVAAKTDMKSTVRNRKRGRARGSQPGRGSTATTIVHDEQRVTRRPAGGNRQRNQHRQLAEKLVAREEHQSRKKAAEKRMETAKAELALFDQVMQIPSFEENPFAAIEGHLNGTMAFLQPQTPDVGRRKLEE")
"not soluble"
>>> reported_measurement("MDKKVTDSTQRGYYIVYLFSEDMCRLYLTLTQRVTETPRDEMERVKQDIRQQIPVGGRVQTDNAIRLSASKRAKEYERSVAVYIAYSFDNLPSDEQLVSDLKTMIGYYRQYVERTEKMTPFKQSLSDRSVVEHIHFYITAKGFYYTQEEVMNLFLSLKTKPFVILSGISGTGKTKIAQWLAESVGATEDNGQFILIPVCPDWNDGSDLLGYVDIKGDFKPGPLTNVITEAENHPDKPYFVVLDEMNLARVEHYFSDVLSVMGSRRWENGRITLSRLLPKETAGRDLFLPPNVYIIGTVNMDETTHPFSKKVLDRANTIEFNRIRLDHLDFLRDLPTVAPLSGGQEWFAARLEHHHHHH")
"not soluble"

Any idea what its soluble on expression in E. coli is? The sequence is MLPANEIKGVLAFLREAERLKSVIRSGYTSTGRPESTAEHTWRLCLMAMLLADGLGDIDVARLLKICIVHDLGEALHGDVPAVAQVEGDDRAARERADIETLTQSLDDKRRAELLGLWHDYETGASPEGRLAKGLDKLETILQHTQGLNPADFDYAFNLDYGARHTAVHPLVSAIRAELDNDTRARMALQQASGAPH
not soluble

Check MSLSLSLEVLERLVAFETVSDRPNLDMIAYVEDFLRTRGFRVHRIADPEEAKAGLFAEIGPSVDGGLLLSAHSDVVPVEGQSWCVPPFKLTRQGDKLYGRGTTDMKGFLAEMLALADVVHRRDLHAPLKLLISYDEEIGCVGISRMKDRLRPLLGRPELAIVGEPTEMQVAISHKGKRSYRADFRGEAGHSALAPRFVNALHLAVDFVTKLRQMQDEFRQDGNFNGDYDVPYTTLHVGQLHGGEALNLVPDKATLLFEFRHLAEDDPEVIEARIQQAADAVKGNYADVAHISLDALAGYPGLSVAVSEPLVSRVRSWCDGNISHVAFGTEAGVLSELGIQTVVCGPGSMAEQGHKPDEFISEHQLAACSNMLRKGAEEMLYCAEGHHHHHH too.
soluble

====

experiment: soluble on expression in E. coli; label from the status in PepcDB or PDB records
PROPERTY_MEASURED: soluble on expression in E. coli

>>> reported_measurement("EVVVTGYGDFKKATYTGSASVLNTDKLESLPVVSVAQMMEANIPGLSSVASSSQPGSKATVRVRGIASMNASTEPLYVLDGVPVASRDMSGLSANASAGGLGLIETLNPADIESITVLKDAASASLYGAKGSNGVILI")
"not soluble"
>>> reported_measurement("MALPRITQKEMTEREQRELKTLLDRARIAHGRPLTNSETNSVKKEYIDKLMALREAEAKKARQLKKKQAYKPDTEASFSWSANTPTRGRR")
"not soluble"

====

assay: soluble on expression in E. coli; label from the status in PepcDB or PDB records
PROPERTY_MEASURED: soluble on expression in E. coli

Here is how some sequences turned out for soluble on expression in E. coli.
>>> reported_measurement("MFTQLALLSVLAVFVAQATMNLPSQEQYNAELKSAGMSQAGIDGLNVLSQKFVSQYPVVQANKEAADKFLAEYTEEAQNYVKSMSPEDQKIYAESLKKYGLA")
"not soluble"
>>> reported_measurement("SSGGKSAQGPEEGGVCITEALITKRNLTFPEDGELSEKMFHTLDELQTVRLDREGITTIRNLEGLQNLHSLYLQGNKIQQIENLACIPSLRFLSLAGNQIRQVENLLDLPCLQFLDLSENLIETLKLDEFPQSLLILNLSGNSCTNQDGYRELVTEALPLLLDLDGQPVVERWISDEEDEASSDEEFPELSGPFCSERGFLKELEQELSRHREHRQQTALTEHLLRMEMQPTLTDLPLLPGVPMAGDSSPSATPAQGEETVPEAVSSPQASSPTKKPCSLIPRGHQSSFWGRKGARAATAPKASVAEAPSTTKTTAKRSKK")
"soluble"
>>> reported_measurement("GMTDQSVRIIEAALRLYMKKPPHEVSIEEIAREAKVSKSLIFYHFESKQKLLEEAVMHAFRKMMEEFNPRSVEEVVDYGIGFIAERREFIEFMMYALSQVRIEELERMFGEALEKVASLFEGCRHPRETAIALMAMLDGLSIYSLYFDLGKLEKYREIAMEFVESRRVRA")
"soluble"
>>> reported_measurement("MFQTFEGDLKWHHHNITYWIQNYSEDLPRAVIDDAFARAFALWSAVTPLTFTRVYSRDADIVIQFGVAEHGDGYPFDGKDGLLAHAFPPGPGIQGDAHFDDDELWSLGKGQGYSLFLVAAHEFGHALGLDHSSVPEALMYPMYRFTEGPPLHKDDVNGIRHLY")
"soluble"
>>> reported_measurement("MGCRATQRESVGFADKIRYTERRFISVFGVPLLIQLICQAPQRAQELEQIAARWQLQASDDSPFALVLSEERLELRKLDEPKLGAIYVDWVEGAVAHRRKFGGGKGQSIAKAAGLNKGVTPVVLDATAGLGRDAFVLASLGCRVQMVERHPVVAALLEDGLQRAKQDDEIGAWVSERISLLHASSHDALQQLASDPNFTSPDVVYLDPMYPHPENKKKTALVKKEMRVFQSLVGADNDADALLEPALQLAQKRVVVKRPDYAPWLGNRKPSMAMETKKNRFDVYVIAAMSGE")
"soluble"
>>> reported_measurement("MDRVDCIVIGAGVVGLAVARKLAQAGREVIVLEEAEAIGTITSSRNSEVIHAGIYYRAGSWMARMCVNGKHALYRYCGERGIPHKNCGKLIVATNAKETEKLQSIKAHAEANGVLDMQLLTGEAARALEPALACDAALLSPSTGIIDSHAYMLSLRGEAEEAGAAFAFHTPLIRAKAAAGMIEVEAGGEAPMALQCSLLVNAAGLAATTVARNIDGMPLDRIPPAYLAKGNYFSCNAKAPFSHLIYPVPEPGGLGVHLTLDMAGQARFGPDVEWIETINYEVDPSRAERFYPAIRRYWPTLPDGALMPSYSGIRPKIVPPAVATQDFLMQGPRDHGVAGLINLFGIESPGLTSSLAIADHVAELANILEHHHHHH")
"not soluble"

Any idea what its soluble on expression in E. coli is? The sequence is MGTPKPRILPWLVSQLDLGQLEGVAWVNKSRTRFRIPWKHGLRQDAQQEDFGIFQAWAEATGAYVPGRDKPDLPTWKRNFRSALNRKEGLRLAEDRSKDPHDPHKIYEFVNSGVGDFSQPDTS
soluble

Check MSNTQHKLDKTRPPRVQITYDVETGDAETAKELPLVIGVLGEYSSSEKPLRERKFISIDKDNFDEVMASMSPTAHFMVDSVIPGNEGKLDVELRFSCKDDFSPDNVIQQVECLRKLSELRLHLCDLRNRAASNEKLKEKLQELLVTTNGNPENDESKE too.
not soluble

====

assay: soluble on expression in E. coli; label from the status in PepcDB or PDB records
PROPERTY_MEASURED: soluble on expression in E. coli

Here is how some sequences turned out for soluble on expression in E. coli.
>>> reported_measurement("MSLNHHPIIYLVDHQKDARAALSKLLSPLDVTIQCFASAESFMRQQISDDAIGMIIEAHLEDKKDSGIELLETLVKRGFHLPTIVMASSSDIPTAVRAMRASAADFIEKPFIEHVLVHDVQQIINGAKEGHHHHHH")
"soluble"
>>> reported_measurement("METETATTPTGNTEPTAAASAEPPKSDKVTVRLRNIADAPVLKNKKMVVNPTDTVASFILKLRKLLNIQANNSLFLYIDNTFAPSPDTTFETLSRCYSVKITDKEILELQYSITPAYG")
"soluble"
>>> reported_measurement("MGHHHHHHSHMSIRNWVTRTPSSSPPITPPASETKIMSPRKALTPVSQKSSQAEACSESRNRVKRRLDSSCLESVKQKCVKSCNCVTELDGQVENLHLDLCCLAGNQEDLSKDSLGPTKSSKIEGAGTSISEPPSPISPYASESCGTLPLPLRPCGEGSEMVGKENSSPENKNWLLAMAAKRKAENPSPRSPSSQTPNSRRQSGKTLPSPVTITPSSMRKICTYFHRKSQEDFCGPEHSTEL")
"not soluble"
>>> reported_measurement("MGSDKIHHHHHHMKSIPSLDDLDLFARIAQAGGLAVVARQSGVSVPTLSRRMRALELQIGVHLFERGSHGYRVTALGRAFLSETRAFQAEAQRLRRMVATPLMAEVRITAGSWTSAFLAQQLPRFWQEDAQWRPAFLEADTRLDIARRGADIGIRNQRPEQAWLAGRYTGLITYAVYAISDQVRGYVVLPENQAKTPSARWVWSHHGGEVAATARSPRMVADLACAGVGQVVLPRFAAAMFPALQQVGPEIAELSHEEWLVCHHDGRHDPPVRAALEGIAAVLTDTTLRPIGA")
"not soluble"

Any idea what its soluble on expression in E. coli is? The sequence is MGSSHHHHHHSSGRENLYFQGHMSHRDTLFSAPIARLGDWTFDERVAEVFPDMIQRSVPGYSNIISMIGMLAERFVQPGTQVYDLGCSLGAATLSVRRNIHHDNCKIIAIDNSPAMIERCRRHIDAYKAPTPVDVIEGDIRDIAIENASMVVLNFTLQFLEPSERQALLDKIYQGLNPGGALVLSEKFSFEDAKVGELLFNMHHDFKRANGYSELEISQKRSMLENVMLTDSVETHKARLHNAGFEHSELWFQCFNFGSLVALKAEDAA
soluble

Check MGSDKIHHHHHHMDFIEVYPNAIPDELCDRLIETVNTHPGVIDGITGHGVDLEKKISRDITMDNFQELLPLRNELLNYTLKHSAQYFEKYALGLMGAVAVTLADEQGKPQTLTPDNFDTLGRHRVQPLVQYLYRSGTINIQHYQQGKGGYPHWHSEQFPQMGHNEALHRVVLYMFYLNDVEEGGETEFFYQQRKIKPKKGTMVIAPAGFTHSHRGNMPISGDKYIATSWVMFNRAEKLYAPVG too.
not soluble

Check MKVNKFITIYKDIAQQIEGGRWKAEEILPSEHELTAQYGTSRETVRKALHMLAQNGYIQKIRGKGSVVLNREKMQFPVSGLVSFKELAQTLGKETKTTVHKFGLEPPSELIQKQLRANLDDDIWEVIRSRKIDGEHVILDKDYFFRKHVPHLTKEICENSIYEYIEGELGLSISYAQKEIVAEPCTDEDRELLDLRGYDHMVVVRNYVFLEDTSLFQYTESRHRLDKFRFVDFARRGK too.
soluble

Check MSGFDLIIFDCDGVLVDSEIIAAQVESRLLTEAGYPISVEEMGERFAGMTWKNILLQVESEASIPLSASLLDKSEKLLDMRLERDVKIIDGVKFALSRLTTPRCICSNSSSHRLDMMLTKVGLKPYFAPHIYSAKDLGADRVKPKPDIFLHGAAQFGVSPDRVVVVEDSVHGIHGARAAGMRVIGFTGASHTYPSHADRLTDAGAETVISRMQDLPAVIAAMAEWEGAF too.
soluble
